Each record here notes measured TGI.
Test system: HS 578T breast
Assay: NCI tumour cell line growth inhibition, 48 h
value-type: TGI

COC(=O)[C@]12CC[C@@H](C)[C@H](C)[C@@H]1C1=CC[C@@H]3[C@@]4(C)CC(=O)[C@H](OC(=O)c5ccco5)[C@@]5(C)COC(=C45)C[C@@]3(C)[C@]1(C)CC2 | > 100 µM
CC(=O)N(CN1C(=O)CCC1C(=O)O)c1ccccc1Cl (stereo unspecified) | > 100 µM
CCCC1(N)CC(OC)OC(C)C1O (stereo unspecified) | > 100 µM
C=CCN1CCC2(CC1)NC(=O)c1ccccc1O2 | > 100 µM
COCCNC1CCC2(SCCS2)c2[nH]c3ccccc3c21 (stereo unspecified) | > 100 µM
Cc1ccc2c(c1)C(=O)c1c-2n(CCCN=[N+]=[N-])c(=O)c2cc([N+](=O)[O-])ccc12 | > 100 µM
